# test.system: T1, Recombinant Human TNF-α/TNFSF1A (human, UniProt P01375 77-233)
# T1 construct: Bought reagent (R&D Systems 210-TA); also called hTNF-α; huTNF-α
# T1 sequence (P01375 77-233 limits assumed): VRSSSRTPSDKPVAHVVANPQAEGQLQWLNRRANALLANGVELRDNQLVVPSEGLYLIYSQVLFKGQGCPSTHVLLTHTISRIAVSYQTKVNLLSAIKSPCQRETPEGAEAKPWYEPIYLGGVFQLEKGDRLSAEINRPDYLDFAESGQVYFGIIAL
# assay.explanation: SPR (Biacore), antibody captured, TNF-α in solution
Give measured Kd for each item. Keep answers brief.
Value expressed in pM; do not type the unit.

// Kd lookup, binder = AB259 (antibody, V domains shown, also called hMAK195VH.2a / hMAK195VL.2a) VH: EVQLVESGGGLVQPGGSLRLSCAVSGFTLSDYGVNWVRQAPGKGLEWLGMIWGDGSTDYDSTLKSRLTISKDNSKSTIYLQMNSLRAEDTAVYYCAREWHHGPVAYWGQGTLVTVSS VL: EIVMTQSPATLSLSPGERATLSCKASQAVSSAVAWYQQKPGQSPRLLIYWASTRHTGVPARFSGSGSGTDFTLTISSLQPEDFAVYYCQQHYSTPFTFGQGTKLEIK , result: 67.7

// Kd lookup, binder = AB245 (antibody, V domains shown, also called hMAK195VH.1a / hMAK195VL.1a) VH: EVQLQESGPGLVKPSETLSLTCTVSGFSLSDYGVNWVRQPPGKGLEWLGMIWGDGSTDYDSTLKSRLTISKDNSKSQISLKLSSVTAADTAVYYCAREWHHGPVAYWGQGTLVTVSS VL: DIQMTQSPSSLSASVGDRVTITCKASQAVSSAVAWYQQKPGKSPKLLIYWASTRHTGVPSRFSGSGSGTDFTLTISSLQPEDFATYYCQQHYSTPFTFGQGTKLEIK , result: 99.4

// Kd lookup, binder = AB261 (antibody, V domains shown, also called hMAK195VH.2b / hMAK195VL.1a) VH: EVQLVESGGGLVQPGGSLRLSCAASGFTLSDYGVNWVRQAPGKGLEWVSMIWGDGSTDYDSTLKSRFTISKDNSKNTLYLQMNSLRAEDTAVYYCAREWHHGPVAYWGQGTLVTVSS VL: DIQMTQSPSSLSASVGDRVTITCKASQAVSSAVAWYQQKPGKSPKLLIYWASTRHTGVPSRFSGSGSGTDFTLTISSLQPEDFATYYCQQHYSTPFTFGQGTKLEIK , result: 122

// Kd lookup, binder = AB255 (antibody, V domains shown, also called hMAK195VH.2 / hMAK195VL.2a) VH: EVQLVESGGGLVQPGGSLRLSCAASGFTFSDYGVNWVRQAPGKGLEWVSMIWGDGSTDYDSTLKSRFTISRDNSKNTLYLQMNSLRAEDTAVYYCAREWHHGPVAYWGQGTLVTVSS VL: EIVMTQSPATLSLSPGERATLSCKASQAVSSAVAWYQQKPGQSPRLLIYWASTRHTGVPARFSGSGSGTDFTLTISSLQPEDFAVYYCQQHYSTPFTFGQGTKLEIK , result: 148
